Readings of ID50 for the listed molecules
Test system: MT4
experiment: Inhibitory dose required to reduce the viability of MT-4 cells by 50%
Format: functional, Homo sapiens

Recorded ID50, per entry:
| molecule | ID50 |
| --- | --- |
| O=c1[nH]c(=O)n([C@@H]2C[C@H](O)[C@@H](CO)S2)cc1/C=C/Br | > 500 µM |
| Cc1cn([C@@H]2C[C@H](O)[C@@H](CO)S2)c(=O)[nH]c1=O | > 100 µM |
| Cc1cn([C@H]2C[C@H](O)[C@@H](CO)S2)c(=O)[nH]c1=O | 1 µM |
| Cc1cn(C2CC(N=[N+]=[N-])C(CO)S2)c(=O)[nH]c1=O (stereo not given) | > 100 µM |

Okay, now this molecule:
IN: So what ID50 did O=c1[nH]c(=O)n([C@H]2C[C@H](O)[C@@H](CO)S2)cc1/C=C/Br get with MT4?
OUT: > 500 µM
